- EXPERIMENT SUMMARY: Stability in human plasma assessed as compound remaining at 3.3 umol/L after 15 mins by RF-MS analysis relative to control
- Type: ADME, cell-free
- SETTINGS: read-out: Stability
I'd appreciate it if you could supply remaining at 0.25 h, 3.3 µM values for the items below.
Give bare numbers, in %.

1. Cc1ncnc2c1c1c(ccn1C)n2[C@@H]1O[C@H](CO)[C@@H](O)[C@H]1O 98
2. Cc1ncnc2c1c1occc1n2[C@@H]1O[C@H](CO)[C@@H](O)[C@H]1O 99
3. CSc1ncnc2c1c1occc1n2[C@@H]1O[C@H](CO)[C@@H](O)[C@H]1O 99

Now consider the entry below.
Exam item: State its remaining at 0.25 h, 3.3 µM: CSc1ncnc2c1c1c(ccn1C)n2[C@@H]1O[C@H](CO)[C@@H](O)[C@H]1O
Marked response: 100

* * *

Please respond with reported Activity for every item in the list.
- System: CCRF-CEM
- EXPERIMENT SUMMARY: Induction of cell cycle arrest in human CCRF-CEM cells assessed as accumulation at subG1 phase at 5 times IC50 concentration after 24 hrs by propidium iodide-staining based flow cytometry (reference value: 3.45%)
- Assay type: functional
One number for each entry, in %.

Look over these answered cases.
1. Cc1ncnc2c1c1occc1n2[C@@H]1O[C@H](CO)[C@@H](O)[C@H]1O 20.53
2. COc1ncnc2c1c1occc1n2[C@@H]1O[C@H](CO)[C@@H](O)[C@H]1O 6.82
3. CSc1ncnc2c1c1occc1n2[C@@H]1O[C@H](CO)[C@@H](O)[C@H]1O 14.06
4. Cc1ncnc2c1c1c(ccn1C)n2[C@@H]1O[C@H](CO)[C@@H](O)[C@H]1O 10.99
5. CSc1ncnc2c1c1c(ccn1C)n2[C@@H]1O[C@H](CO)[C@@H](O)[C@H]1O 12.67

Hi, could you look up Activity for each item in my list?
1. Nc1ncnc2c1c(-c1cccs1)cn2[C@@H]1O[C@H](CO)[C@@H](O)[C@H]1O
2. COc1ncnc2c1c1c(ccn1C)n2[C@@H]1O[C@H](CO)[C@@H](O)[C@H]1O

Marked response:
[58.53, 13.86]

* * *

- EXPERIMENT SUMMARY: Metabolic stability in human liver microsomes assessed as compound remaining at 5 umol/L after 15 mins relative to control
- Format: ADME, Microsome
- SETTINGS: read-out: Stability
I'd be grateful if you could share measured remaining at 0.25 h, 5 µM for these entries.
Give bare numbers, in %.

In the examples that follow, each entry is paired with its recorded remaining at 0.25 h, 5 µM.
1. Cc1ncnc2c1c1c(ccn1C)n2[C@@H]1O[C@H](CO)[C@@H](O)[C@H]1O 99
2. CSc1ncnc2c1c1c(ccn1C)n2[C@@H]1O[C@H](CO)[C@@H](O)[C@H]1O 99
3. Cc1ncnc2c1c1occc1n2[C@@H]1O[C@H](CO)[C@@H](O)[C@H]1O 100

Please turn your attention to the following entry.
Exam item: Identify measured remaining at 0.25 h, 5 µM associated with CSc1ncnc2c1c1occc1n2[C@@H]1O[C@H](CO)[C@@H](O)[C@H]1O
Marked response: 100

* * *

- EXPERIMENT SUMMARY: Mitochondrial toxicity in human OCI-AML2 cells assessed as reduction in oxidative phosphorylation-based viability after 72 hrs by CellTiterGlo assay
- Format: cell-based
Answer each item with its documented IC50 at 72 h.
Give bare numbers, in nM.

1. Cc1ncnc2c1c1occc1n2[C@@H]1O[C@H](CO)[C@@H](O)[C@H]1O 340
2. CSc1ncnc2c1c1c(ccn1C)n2[C@@H]1O[C@H](CO)[C@@H](O)[C@H]1O 160

// switching to the query molecule
Exam item: State its IC50 at 72 h: CSc1ncnc2c1c1occc1n2[C@@H]1O[C@H](CO)[C@@H](O)[C@H]1O
Marked response: 190

* * *

- TEST SYSTEM: Adenosine kinase (Homo sapiens, UniProt P55263)
- Sequence (P55263 whole entry): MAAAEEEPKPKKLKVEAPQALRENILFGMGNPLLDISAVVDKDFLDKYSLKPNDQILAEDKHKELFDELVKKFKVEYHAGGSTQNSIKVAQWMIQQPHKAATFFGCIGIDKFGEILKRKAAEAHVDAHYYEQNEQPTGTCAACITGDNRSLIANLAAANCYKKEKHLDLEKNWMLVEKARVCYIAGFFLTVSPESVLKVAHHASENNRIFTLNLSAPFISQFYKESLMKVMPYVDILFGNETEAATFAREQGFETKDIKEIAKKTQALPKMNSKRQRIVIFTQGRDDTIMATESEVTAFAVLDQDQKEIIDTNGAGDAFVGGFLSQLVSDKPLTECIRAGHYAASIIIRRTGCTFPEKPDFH
- EXPERIMENT SUMMARY: Inhibition of recombinant human ADK using [3H]-adenosine as substrate after 20 mins by TLC scanner-based analysis relative to control
OBSERVATION TYPE: IC50

Recorded IC50, per entry:
1. Nc1ncnc2c1c1occc1n2[C@@H]1O[C@H](CO)[C@@H](O)[C@H]1O > 10 µM
2. Cn1ccc2c1c1c(N)ncnc1n2[C@@H]1O[C@H](CO)[C@@H](O)[C@H]1O > 10 µM
3. Cc1ncnc2c1c1ccn(C)c1n2[C@@H]1O[C@H](CO)[C@@H](O)[C@H]1O > 10 µM
4. Cn1ccc2c1c1c(-c3ccco3)ncnc1n2[C@@H]1O[C@H](CO)[C@@H](O)[C@H]1O 7.12 µM
5. CN(C)c1ncnc2c1c1c(ccn1C)n2[C@@H]1O[C@H](CO)[C@@H](O)[C@H]1O > 10 µM
6. OC[C@H]1O[C@@H](n2c3ccoc3c3c(-c4cc5ccccc5o4)ncnc32)[C@H](O)[C@@H]1O 0.336 µM
7. Cn1ccc2c1c1c(-c3cc4ccccc4o3)ncnc1n2[C@@H]1O[C@H](CO)[C@@H](O)[C@H]1O 0.3 µM
8. Cn1ccc2c3c(Cl)ncnc3n([C@@H]3O[C@H](CO)[C@@H](O)[C@H]3O)c21 > 10 µM
9. Cn1ccc2c1c1c(Cl)ncnc1n2[C@@H]1O[C@H](CO)[C@@H](O)[C@H]1O > 10 µM
10. COc1ncnc2c1c1c(ccn1C)n2[C@@H]1O[C@H](CO)[C@@H](O)[C@H]1O > 10 µM

I would be grateful if you could provide IC50 for each of the following entries.
1. Cn1ccc2c3c(-c4cc5ccccc5o4)ncnc3n([C@@H]3O[C@H](CO)[C@@H](O)[C@H]3O)c21
2. CSc1ncnc2c1c1c(ccn1C)n2[C@@H]1O[C@H](CO)[C@@H](O)[C@H]1O
3. Cn1ccc2c3c(N)ncnc3n([C@@H]3O[C@H](CO)[C@@H](O)[C@H]3O)c21

Marked response:
["0.47 µM", "> 10 µM", "> 10 µM"]

List the reported IC50 of each compound below.
1. Cc1ncnc2c1c1c(ccn1C)n2[C@@H]1O[C@H](CO)[C@@H](O)[C@H]1O
2. CN(C)c1ncnc2c1c1ccn(C)c1n2[C@@H]1O[C@H](CO)[C@@H](O)[C@H]1O
3. CSc1ncnc2c1c1occc1n2[C@@H]1O[C@H](CO)[C@@H](O)[C@H]1O

Marked response:
> 10 µM
> 10 µM
> 10 µM

* * *

- System: BJ
- EXPERIMENT SUMMARY: Antiproliferative activity against human BJ cells after 3 days by MTS assay
- SETTINGS: 72 h
Please go through the items and note down their pIC50.
Give bare numbers, as −log10 of the molar value.

These recorded examples may help you get a feel for the data.
1) COc1ncnc2c1c1occc1n2[C@@H]1O[C@H](CO)[C@@H](O)[C@H]1O 5.96
2) Cn1ccc2c3c(-c4cc5ccccc5o4)ncnc3n([C@@H]3O[C@H](CO)[C@@H](O)[C@H]3O)c21 4.35
3) CSc1ncnc2c1c1occc1n2[C@@H]1O[C@H](CO)[C@@H](O)[C@H]1O 6.31

Now turn to the next compound.
Exam item: Check BJ data and give pIC50 for Cn1ccc2c3c(-c4ccco4)ncnc3n([C@@H]3O[C@H](CO)[C@@H](O)[C@H]3O)c21 .
Marked response: 5.27

* * *

Hi there, I'd appreciate the recorded pIC50 for every entry that follows.
- Tested on: U2OS
- EXPERIMENT SUMMARY: Antiproliferative activity against human U2OS cells after 3 days by MTS assay
- Type: functional, cell-based
- SETTINGS: 72 h
One number for each entry, as −log10 of the molar value.

1) CSc1ncnc2c1c1c(ccn1C)n2[C@@H]1O[C@H](CO)[C@@H](O)[C@H]1O 5.85
2) Cn1ccc2c3c(-c4ccco4)ncnc3n([C@@H]3O[C@H](CO)[C@@H](O)[C@H]3O)c21 5.46

Kindly review the next compound as well.
Exam item: Using the record for Cn1ccc2c1c1c(Cl)ncnc1n2[C@@H]1O[C@H](CO)[C@@H](O)[C@H]1O , state its measured pIC50.
Marked response: 6.21

* * *

- EXPERIMENT SUMMARY: Protein binding in human plasma
- Type: ADME, cell-free
- SETTINGS: read-out: PPB (converted)
Could you please report measured fraction unbound for the items listed next?
Give bare numbers.

1. CSc1ncnc2c1c1occc1n2[C@@H]1O[C@H](CO)[C@@H](O)[C@H]1O 0.16
2. Cc1ncnc2c1c1c(ccn1C)n2[C@@H]1O[C@H](CO)[C@@H](O)[C@H]1O 0.71
3. Cc1ncnc2c1c1occc1n2[C@@H]1O[C@H](CO)[C@@H](O)[C@H]1O 0.41

# evaluate next
Exam item: Return reported fraction unbound. Input molecule: CSc1ncnc2c1c1c(ccn1C)n2[C@@H]1O[C@H](CO)[C@@H](O)[C@H]1O
Marked response: 0.11
